pIC50: −log10 of the molar value.
Multiple publications report pIC50 for UniProtKB P11712; what follows is a combined list.
PROPERTY: pIC50

> print(dat)
                                   compound      study.system  value.measured
1  Cc1nc(CO)sc1-c1csc(NC(=O)C2CCC(F)(F)C2)n1 (stereo not shown)  UniProtKB P11712          < 4.70
2  Cc1nn(C)c2c1OCCN2C(=O)c1cc(Br)c(O)c(Br)c1  UniProtKB P11712            4.79
3  CC(C)[C@@H]1Oc2c(Cl)cc(Cl)cc2N(CCC(=O)O)C1=O  UniProtKB P11712          < 4.30
4  Cc1ccc2c(c1)N(C(=O)c1cc(Br)c(O)c(Br)c1)CCO2  UniProtKB P11712            4.89
5  COCCN1CCC(c2cc(OC3CC3)c(Nc3ncc(Cl)c(Nc4cn(C)nc4S(=O)(=O)C(C)C)n3)cc2C)CC1  UniProtKB P11712          < 5.00
6  C[C@H]1SC(N)=N[C@](C)(c2cc(NC(=O)c3coc(CF)n3)ccc2F)[C@H]1F  UniProtKB P11712          ≤ 5.00
7  C[C@@H](c1ccccc1-c1ccc(F)cc1)n1cncc1C(=O)N1CCN2C[C@H](O)C[C@H]2C1  UniProtKB P11712          < 5.00

###

Multiple publications report pIC50 for Cytochrome P450 2C9 (Homo sapiens); what follows is a combined list.
pIC50: −log10 of the molar value.
PROPERTY: pIC50

> print(dat)
                        structure.as.smiles  property  value.measured
1  COc1ccc(Nc2ccc(C(=O)c3c[nH]c4ncnc(N5CCCCC5)c34)c(F)n2)cn1     pIC50          < 5.00
2  CN(C)S(=O)(=O)c1ccc2c(c1)N(C(=O)c1cc(Cl)c(O)c(Cl)c1)CCO2     pIC50            4.85
3  CN(C)C(=O)CCC(=O)Nc1cc2n(n1)CCN2c1cccc(Cl)c1     pIC50          < 4.70
4  CCNc1ncnc2[nH]cc(C(=O)c3ccc(Nc4ccc(CC)nc4)nc3F)c12     pIC50          < 5.00
5  C[C@@H](c1ccccc1-c1ccc(F)cc1)n1cncc1C(=O)N1CCC(N2C[C@H](O)[C@@H](F)C2)CC1     pIC50          < 5.00

###

Multiple publications report IC50 for Cytochrome P450 2C9 (Homo sapiens, UniProt P11712); what follows is a combined list.
PROPERTY: IC50

> print(dat)
                                    compound                              study.system  property  value.measured
 1  COc1cc2c(NC3CCOCC3)nc(N3CCCN(C)CC3)nc2cc1OCCCN1CCCC1  Cytochrome P450 2C9 (Homo sapiens, UniProt P11712)      IC50        > 100 µM
 2  C[C@H](c1ccc(F)cc1)n1cncc1C1COCC2CN(S(=O)(=O)c3cnc(Nc4ccccn4)s3)CCN21 (stereo partly drawn)  Cytochrome P450 2C9 (Homo sapiens, UniProt P11712)      IC50        0.357 µM
 3  Cc1ccc(Nc2ccc(C(=O)c3c[nH]c4ncnc(C5CC5)c34)c(F)n2)cn1  Cytochrome P450 2C9 (Homo sapiens, UniProt P11712)      IC50         > 10 µM
 4  CC(C)Oc1ccc(S(=O)(=O)N2C[C@@H](C)[C@@H](n3nc(CC(=O)O)c4ccc(F)cc43)C2)c(F)c1  Cytochrome P450 2C9 (Homo sapiens, UniProt P11712)      IC50         > 20 µM
 5  C[C@]1(c2cc(NC(=O)c3ccc(C#N)cn3)ccc2F)N=C(N)O[C@@H]2CCC(F)(F)[C@@H]21  Cytochrome P450 2C9 (Homo sapiens, UniProt P11712)      IC50         > 10 µM
 6  Cc1cc(Cl)c2c(c1)N(CCC(=O)O)C(=O)[C@H](C(C)C)O2  Cytochrome P450 2C9 (Homo sapiens, UniProt P11712)      IC50         > 50 µM
 7  CC(C)S(=O)(=O)c1nn(C2CC2)cc1Nc1nc(Nc2cc(F)c(C3CCN(C)CC3)cc2OC2CC2)ncc1Cl  Cytochrome P450 2C9 (Homo sapiens, UniProt P11712)      IC50         > 10 µM
 8  COC(C)C(=O)Nc1cccc(NC(C(N)=O)c2ccccc2)c1 (stereo not drawn)  Cytochrome P450 2C9 (Homo sapiens, UniProt P11712)      IC50         > 50 µM
 9  CC(F)(F)[C@H]1OC(N)=N[C@](C)(c2cc(NC(=O)c3ccc(C#N)cn3)ccc2F)[C@H]1F  Cytochrome P450 2C9 (Homo sapiens, UniProt P11712)      IC50         ≥ 20 µM
10  CCn1cc(Nc2ccc(Cc3c[nH]c4ncnc(C5CC5)c34)c(F)n2)cn1  Cytochrome P450 2C9 (Homo sapiens, UniProt P11712)      IC50      5 to 10 µM
11  O=C(NC1CC1)c1cc(COC2=NN=C(Nc3ccc(Cl)cc3)C3C=COC23)ccn1 (stereo not drawn)  Cytochrome P450 2C9 (Homo sapiens, UniProt P11712)      IC50         > 20 µM
12  O=C(c1cc(Cl)c(O)c(Cl)c1)N1CCOc2cc(O)ccc21  Cytochrome P450 2C9 (Homo sapiens, UniProt P11712)      IC50           13 µM
13  C[C@H]1[C@@H](C(F)(F)F)OC(N)=N[C@]1(C)c1cc(NC(=O)c2cnc(OCF)cn2)ccc1F  Cytochrome P450 2C9 (Homo sapiens, UniProt P11712)      IC50         ≥ 20 µM
14  COc1ccc(Nc2ccc(Cc3c[nH]c4ncnc(OC)c34)c(F)n2)cn1  Cytochrome P450 2C9 (Homo sapiens, UniProt P11712)      IC50         > 10 µM
15  C[C@@H](c1ccccc1-c1ccc(F)cc1)n1cncc1C(=O)N1CCC(N2C[C@@H](O)[C@H](F)C2)CC1  Cytochrome P450 2C9 (Homo sapiens, UniProt P11712)      IC50         > 10 µM
